Taken from ChEMBL document CHEMBL5143737.

- System: CHO
- method_notes: Cytotoxicity against CHO cells expressing AGT and glycolate oxidase assessed as reduction in cell viability at 50 uM measured after 7 days by crystal violet staining assay
- Type: toxicity, cell-based, Cricetulus griseus
- condition_parameters: chinese hamster, 168 h, time 7 day
measured_endpoint: Activity

Bench note, CHO: NOCc1cc2ccccc2s1 , Activity reads Non-Toxic

Bench note, CHO: COc1c(C)cnc(CON)c1C , Activity reads Non-Toxic

Bench note, CHO: CN1CCN(c2cccc(CON)c2)CC1 , Activity reads Toxic

Bench note, CHO: Cl.NOCc1ccc(F)cc1F , Activity reads Non-Toxic

Please find the next compound below.
Bench note, CHO: NOCc1cccc(-c2ccc(C(F)(F)F)cc2)c1 , Activity reads Non-Toxic

====

- Tested on: CHO
- method_notes: Cytotoxicity against CHO cells expressing AGT G41R variant and glycolate oxidase assessed as reduction in cell viability at 50 uM measured after 7 days by crystal violet staining assay
- Assay type: toxicity, cell-based, Cricetulus griseus
- condition_parameters: chinese hamster, 168 h, time 7 day
measured_endpoint: Activity

// Activity value for COc1c(C)cnc(CON)c1C : Non-Toxic

// Activity value for NOCc1cccc(-c2ccc(C(F)(F)F)cc2)c1 : Non-Toxic

// Activity value for Cl.NOCc1ccc(F)cc1F : Non-Toxic

// Activity value for CN1CCN(c2cccc(CON)c2)CC1 : Toxic
